- test system: human CaV1.2 (Homo sapiens, UniProt Q13936)
- Construct: expressed in transfected cells; host or cells: Flp-In 293 T-Rex (HEK293), monoclonal CaV1.2-HEK293(AUX) clone 2-19B; doxycycline-induced auxiliary subunits
- Sequence (Q13936 1-2138 isoform Q13936-23): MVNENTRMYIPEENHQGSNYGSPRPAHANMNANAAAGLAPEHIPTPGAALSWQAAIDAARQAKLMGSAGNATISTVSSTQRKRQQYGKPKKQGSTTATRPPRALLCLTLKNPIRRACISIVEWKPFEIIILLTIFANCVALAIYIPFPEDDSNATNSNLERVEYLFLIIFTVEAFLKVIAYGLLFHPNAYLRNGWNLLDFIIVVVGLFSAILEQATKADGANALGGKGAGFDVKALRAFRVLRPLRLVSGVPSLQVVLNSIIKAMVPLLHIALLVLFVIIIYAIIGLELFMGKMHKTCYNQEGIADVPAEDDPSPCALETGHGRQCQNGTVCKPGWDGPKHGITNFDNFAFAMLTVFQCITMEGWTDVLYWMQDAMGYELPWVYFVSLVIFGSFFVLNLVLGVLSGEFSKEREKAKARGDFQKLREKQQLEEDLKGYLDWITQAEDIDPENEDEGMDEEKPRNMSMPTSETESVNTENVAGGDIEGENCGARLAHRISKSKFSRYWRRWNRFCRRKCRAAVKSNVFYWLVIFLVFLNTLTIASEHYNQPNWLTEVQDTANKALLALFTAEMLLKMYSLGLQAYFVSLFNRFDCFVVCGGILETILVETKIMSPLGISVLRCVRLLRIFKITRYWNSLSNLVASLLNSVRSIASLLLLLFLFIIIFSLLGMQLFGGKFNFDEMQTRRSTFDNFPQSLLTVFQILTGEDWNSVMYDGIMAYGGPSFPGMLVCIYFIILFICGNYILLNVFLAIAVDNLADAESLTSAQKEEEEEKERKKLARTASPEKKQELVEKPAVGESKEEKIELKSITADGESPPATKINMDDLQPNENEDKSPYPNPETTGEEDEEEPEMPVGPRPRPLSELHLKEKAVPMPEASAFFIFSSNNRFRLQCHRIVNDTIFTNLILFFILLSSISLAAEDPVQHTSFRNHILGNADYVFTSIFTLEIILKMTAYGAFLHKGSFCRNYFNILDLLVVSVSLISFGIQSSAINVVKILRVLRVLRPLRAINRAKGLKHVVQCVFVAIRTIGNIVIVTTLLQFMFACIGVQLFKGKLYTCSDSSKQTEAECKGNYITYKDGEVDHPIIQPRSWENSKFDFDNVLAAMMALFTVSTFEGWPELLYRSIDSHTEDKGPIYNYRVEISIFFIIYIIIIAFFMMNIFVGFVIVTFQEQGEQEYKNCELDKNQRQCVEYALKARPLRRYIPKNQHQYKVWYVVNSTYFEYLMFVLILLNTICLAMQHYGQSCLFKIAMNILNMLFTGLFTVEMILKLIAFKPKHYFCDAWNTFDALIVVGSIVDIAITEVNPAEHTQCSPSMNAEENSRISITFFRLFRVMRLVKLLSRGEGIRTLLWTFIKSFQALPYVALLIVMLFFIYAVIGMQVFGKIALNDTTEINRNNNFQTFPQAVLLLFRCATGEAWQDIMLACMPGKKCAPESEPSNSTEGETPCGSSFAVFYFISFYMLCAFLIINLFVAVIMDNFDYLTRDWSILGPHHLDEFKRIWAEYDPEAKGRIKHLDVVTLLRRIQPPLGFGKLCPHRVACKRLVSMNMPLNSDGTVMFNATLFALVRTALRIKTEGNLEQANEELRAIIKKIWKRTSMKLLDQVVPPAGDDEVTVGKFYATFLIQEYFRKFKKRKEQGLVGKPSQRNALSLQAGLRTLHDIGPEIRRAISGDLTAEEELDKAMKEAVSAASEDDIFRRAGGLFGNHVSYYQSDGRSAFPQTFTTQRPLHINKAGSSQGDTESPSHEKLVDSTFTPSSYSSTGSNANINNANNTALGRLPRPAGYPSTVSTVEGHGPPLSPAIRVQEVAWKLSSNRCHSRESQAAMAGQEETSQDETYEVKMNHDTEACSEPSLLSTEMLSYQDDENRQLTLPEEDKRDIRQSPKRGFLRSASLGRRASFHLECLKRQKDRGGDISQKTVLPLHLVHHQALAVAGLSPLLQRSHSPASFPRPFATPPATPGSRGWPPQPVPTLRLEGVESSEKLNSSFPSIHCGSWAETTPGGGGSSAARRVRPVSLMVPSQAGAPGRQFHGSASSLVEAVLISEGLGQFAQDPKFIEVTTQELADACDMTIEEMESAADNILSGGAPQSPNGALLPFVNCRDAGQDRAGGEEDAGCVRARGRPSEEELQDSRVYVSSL
- Sequence (Q9NY47 19-1001 partner limits assumed): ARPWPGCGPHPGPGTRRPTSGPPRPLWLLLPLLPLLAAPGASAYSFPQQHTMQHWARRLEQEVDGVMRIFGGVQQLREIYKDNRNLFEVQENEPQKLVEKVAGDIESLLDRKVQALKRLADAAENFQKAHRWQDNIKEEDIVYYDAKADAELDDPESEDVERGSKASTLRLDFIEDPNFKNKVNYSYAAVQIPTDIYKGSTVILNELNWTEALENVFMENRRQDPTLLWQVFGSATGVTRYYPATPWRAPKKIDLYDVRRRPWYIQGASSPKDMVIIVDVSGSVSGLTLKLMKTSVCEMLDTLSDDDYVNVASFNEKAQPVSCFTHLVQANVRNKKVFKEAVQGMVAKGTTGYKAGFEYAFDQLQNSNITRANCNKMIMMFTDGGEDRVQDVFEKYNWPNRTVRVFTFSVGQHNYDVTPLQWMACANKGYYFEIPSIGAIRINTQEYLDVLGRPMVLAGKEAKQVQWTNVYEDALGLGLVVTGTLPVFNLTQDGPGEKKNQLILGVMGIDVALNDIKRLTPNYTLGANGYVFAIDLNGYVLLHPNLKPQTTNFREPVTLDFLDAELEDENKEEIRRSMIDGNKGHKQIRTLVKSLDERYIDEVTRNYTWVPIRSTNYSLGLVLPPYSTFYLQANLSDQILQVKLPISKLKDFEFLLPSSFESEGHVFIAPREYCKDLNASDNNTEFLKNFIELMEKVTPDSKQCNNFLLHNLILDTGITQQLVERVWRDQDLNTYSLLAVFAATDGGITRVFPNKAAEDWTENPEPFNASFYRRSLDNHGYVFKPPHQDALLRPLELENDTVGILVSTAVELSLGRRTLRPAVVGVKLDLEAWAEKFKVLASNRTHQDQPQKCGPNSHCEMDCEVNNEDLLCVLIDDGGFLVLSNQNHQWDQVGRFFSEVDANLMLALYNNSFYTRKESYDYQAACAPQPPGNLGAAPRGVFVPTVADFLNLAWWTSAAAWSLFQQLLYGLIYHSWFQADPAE
- Sequence (Q9NY47 1002-1150 partner limits assumed): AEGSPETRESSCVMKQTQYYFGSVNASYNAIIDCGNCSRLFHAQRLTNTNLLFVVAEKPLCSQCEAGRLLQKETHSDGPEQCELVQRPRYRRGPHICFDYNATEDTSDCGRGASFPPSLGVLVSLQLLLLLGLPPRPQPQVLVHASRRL
- Sequence (Q08289 whole entry partner): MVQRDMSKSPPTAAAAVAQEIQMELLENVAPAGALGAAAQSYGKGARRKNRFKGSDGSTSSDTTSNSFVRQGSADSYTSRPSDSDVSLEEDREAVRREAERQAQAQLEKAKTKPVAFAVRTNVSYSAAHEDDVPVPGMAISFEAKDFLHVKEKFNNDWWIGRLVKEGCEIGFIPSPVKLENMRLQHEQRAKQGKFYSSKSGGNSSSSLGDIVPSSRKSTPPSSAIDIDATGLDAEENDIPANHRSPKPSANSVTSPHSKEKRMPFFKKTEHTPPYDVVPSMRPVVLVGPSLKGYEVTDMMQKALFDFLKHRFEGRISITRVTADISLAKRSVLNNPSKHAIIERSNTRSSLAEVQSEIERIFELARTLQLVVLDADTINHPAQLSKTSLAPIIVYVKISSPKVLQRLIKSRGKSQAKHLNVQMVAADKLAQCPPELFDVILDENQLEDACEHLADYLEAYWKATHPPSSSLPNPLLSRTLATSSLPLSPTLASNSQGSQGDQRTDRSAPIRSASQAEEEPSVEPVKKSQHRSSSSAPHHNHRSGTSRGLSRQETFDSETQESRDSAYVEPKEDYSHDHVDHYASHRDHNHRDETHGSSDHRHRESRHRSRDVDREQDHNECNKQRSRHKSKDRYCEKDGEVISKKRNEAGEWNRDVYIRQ
- protocol details: QPatch channel biophysics assay (channel gating, V1/2 of activation, inactivation) in CaV1.2-HEK293(AUX) cells; note: test concentration or dose not given here
- Format: cell-based
- experimental context: Table 9; shift of half-way channel activation voltage V1/2
# label = bin(measured Biophysics voltage shift (mV)), where bins are bottom end (below -6 mV), midrange (-6 mV to below -4 mV), top end (-4 mV or more)

| molecule | class assignment |
| --- | --- |
| COC(=O)C1=C(CF)NC2=C(C(=O)CC2)[C@H]1c1cc(F)cc(F)c1C1CC1 (single isomer, unassigned) [Example 14] | midrange |
| COC(=O)C1=C(CF)NC2=C(C(=O)CC2)[C@H]1c1cccc(F)c1[C@@H](C)F (single isomer, unassigned) [Example 27] | bottom end |
| COC(=O)C1=C(CF)NC2=C(C(=O)CC2)[C@H]1c1cccc(F)c1[C@@H](F)CF (single isomer, unassigned) [Example 7] | bottom end |
| COC(=O)C1=C(CF)NC2=C(C(=O)OC2)[C@H]1c1cc(F)cc(F)c1C(F)F (single isomer, unassigned) [Example 18] | midrange |
| COC(=O)C1=C(CF)NC2=C(C(=O)OC2)[C@H]1c1cccc(F)c1C1CC1 (single isomer, unassigned) [Example 2] | midrange |
| COC(=O)C1=C(CF)NC2=C(C(=O)OC2)[C@H]1c1cc(F)cc(F)c1[C@H](C)F (single isomer, unassigned) [Example 5] | midrange |
| COC(=O)C1=C(CF)NC2=C(C(=O)OC2)[C@H]1c1ccccc1C1CC1 (single isomer, unassigned) [Example 22] | bottom end |
| COC(=O)C1=C(CF)NC2=C(C(=O)OC2)[C@H]1c1cc(F)ccc1C(F)(F)F (single isomer, unassigned) [Example 23] | bottom end |
| COC(=O)C1=C(CF)NC2=C(C(=O)OC2)[C@H]1c1cccc(F)c1CC(F)F (single isomer, unassigned) [Example 11] | midrange |
| COC(=O)C1=C(CF)NC2=C(C(=O)OC2)[C@H]1c1cccc(F)c1[C@@H](C)F (single isomer, unassigned) [Example 8] | midrange |
| COC(=O)C1=C(CF)NC2=C(C(=O)OC2)[C@H]1c1cc(F)cc(F)c1[C@H]1CC1(F)F (single isomer, unassigned) [Example 4] | midrange |
| COC(=O)C1=C(CF)NC2=C(C(=O)OC2)[C@H]1c1cccc(F)c1[C@H](F)CF (single isomer, unassigned) [Example 6] | bottom end |
| COC(=O)C1=C(CF)NC2=C(C(=O)OC2)[C@H]1c1cc(F)ccc1C1CC1 (single isomer, unassigned) [Example 21] | bottom end |
| COC(=O)C1=C(CF)NC2=C(C(=O)OC2)[C@H]1c1cccc(F)c1C(F)F (single isomer, unassigned) [Example 15] | midrange |
| COC(=O)C1=C(CF)NC2=C(C(=O)CC2)[C@H]1c1cccc(F)c1C1CC1 (single isomer, unassigned) [Example 28] | bottom end |
| COC(=O)C1=C(CF)NC2=C(C(=O)OC2)[C@H]1c1cc(F)cc(F)c1[C@H]1CC1(F)F (single isomer, unassigned) [Example 3] | top end |
| COC(=O)C1=C(CF)NC2=C(C(=O)OC2)[C@H]1c1cc(F)cc(F)c1C1CC1 (single isomer, unassigned) [Example 13] | top end |
| COC(=O)C1=C(CF)NC2=C(C(=O)OC2)[C@H]1c1cc(F)cc(F)c1[C@H](F)CF (single isomer, unassigned) [Example 16] | midrange |
| COC(=O)C1=C(CF)NC2=C(C(=O)OC2)[C@H]1c1cc(F)ccc1OC(F)F (single isomer, unassigned) [Example 20] | bottom end |
| COC(=O)C1=C(CF)NC2=C(C(=O)OC2)[C@H]1c1cccc(F)c1C(F)(F)F (single isomer, unassigned) [Example 17] | bottom end |
| COC(=O)C1=C(CF)NC2=C(C(=O)OC2)[C@H]1c1ccccc1OC(F)F (single isomer, unassigned) [Example 9] | midrange |
| COC(=O)C1=C(CF)NC2=C(C(=O)CC2)[C@H]1c1cccc(F)c1CC(F)(F)F (single isomer, unassigned) [Example 25] | midrange |
| COC(=O)C1=C(CF)NC2=C(C(=O)OC2)[C@H]1c1cc(F)cc(F)c1CC(F)F (single isomer, unassigned) [Example 12] | top end |
| COC(=O)C1=C(CF)NC2=C(C(=O)CC2)[C@H]1c1cccc(F)c1CC(F)F (single isomer, unassigned) [Example 26] | midrange |
| COC(=O)C1=C(CF)NC2=C(C(=O)OC2)[C@H]1c1cccc(F)c1OC(F)F (single isomer, unassigned) [Example 19] | bottom end |
| COC(=O)C1=C(CF)NC2=C(C(=O)OC2)[C@H]1c1cc(F)cc(F)c1C(F)(F)F (single isomer, unassigned) [Example 10] | top end |

----------
- protocol details: Compound exposure in wild-type mice (brain and blood levels)
- Assay type: in vivo, C57BL/6J male mice
- experimental context: male, C57BL/6J, mouse, brain (cerebellum) / blood, intraperitoneal, Table 10 comparative examples; read-out: Brain:blood ratio
measured endpoint: Kp at 1 h

| compound | reported result |
| --- | --- |
| CCOC(=O)C1=C(C)NC2=C(C(=O)OC2)[C@H]1c1ccccc1OC(F)F (single isomer, unassigned) [CGP028392, reference compound] | 0.23 |
